Molecular target: recombinant human EGFR L858R/C797S double mutant protein (Homo sapiens (Human), UniProt P00533, C797S/L858R)
Sequence (P00533 25-1210 C797S/L858R): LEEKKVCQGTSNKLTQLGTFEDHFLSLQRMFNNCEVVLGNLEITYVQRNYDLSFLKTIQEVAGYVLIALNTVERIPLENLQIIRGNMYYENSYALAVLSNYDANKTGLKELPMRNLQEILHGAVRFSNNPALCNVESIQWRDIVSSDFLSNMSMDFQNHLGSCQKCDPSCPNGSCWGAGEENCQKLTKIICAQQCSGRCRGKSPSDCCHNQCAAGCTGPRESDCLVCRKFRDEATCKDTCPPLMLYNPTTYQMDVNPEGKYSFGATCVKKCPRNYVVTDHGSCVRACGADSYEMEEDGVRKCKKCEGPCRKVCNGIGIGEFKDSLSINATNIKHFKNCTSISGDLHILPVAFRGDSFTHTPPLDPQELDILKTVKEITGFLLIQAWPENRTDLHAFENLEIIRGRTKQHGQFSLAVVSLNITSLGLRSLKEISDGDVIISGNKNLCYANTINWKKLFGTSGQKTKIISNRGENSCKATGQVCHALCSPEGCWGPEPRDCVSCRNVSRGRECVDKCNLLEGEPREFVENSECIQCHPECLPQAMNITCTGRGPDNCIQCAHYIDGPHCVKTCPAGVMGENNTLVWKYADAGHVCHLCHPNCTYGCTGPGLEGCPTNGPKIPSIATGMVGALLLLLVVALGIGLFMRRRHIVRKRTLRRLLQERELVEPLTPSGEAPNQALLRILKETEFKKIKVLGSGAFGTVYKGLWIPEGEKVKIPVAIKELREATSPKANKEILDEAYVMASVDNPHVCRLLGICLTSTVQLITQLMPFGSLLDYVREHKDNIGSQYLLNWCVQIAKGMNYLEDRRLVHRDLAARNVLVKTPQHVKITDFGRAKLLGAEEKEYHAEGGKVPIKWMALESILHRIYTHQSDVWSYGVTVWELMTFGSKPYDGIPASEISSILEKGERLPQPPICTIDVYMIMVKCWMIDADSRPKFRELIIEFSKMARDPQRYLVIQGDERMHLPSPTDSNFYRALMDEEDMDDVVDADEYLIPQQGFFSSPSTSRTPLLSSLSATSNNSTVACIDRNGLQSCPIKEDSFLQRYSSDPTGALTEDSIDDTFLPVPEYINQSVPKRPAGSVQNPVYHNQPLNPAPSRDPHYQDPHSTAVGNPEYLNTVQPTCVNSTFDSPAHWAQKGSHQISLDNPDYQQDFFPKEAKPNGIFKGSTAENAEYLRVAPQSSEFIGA
Assay: Biological Activity Assay B: biochemical assay against EGFR L858R/C797S protein (EGFR LR/CS)
Protocol: In Row A of a 384-well polypropylene plate, was added 48 μL of DMSO. In wells A1 and A24, were added 12 μL of DMSO. […] To a well in Row A were added 12 μL of each 10 mM test compound stock (100% DMSO). […] To the black low volume assay ready plates, were added 5 μL of 40 uM Phosphosens peptide sensor/4 mM ATP working solution to each well. […] The slope of each curve was constructed using Dotmatics in each well, and each IC50s was calculated using a 4-parameter fit model.
pIC50: −log10 of the molar value.
readoutType: pIC50

Below, each entry is followed by its recorded pIC50 result.
| compound | measured |
| --- | --- |
| O=S1(=O)CC(Cn2ncc(-c3ncnc4oc(-c5ccccc5)cc34)c2-c2ccc(F)cc2)C1 [Example 112] | 7.89 |
| OCCCn1cc(-c2ccnc3[nH]c(-c4nnco4)cc23)c(-c2ccc(F)cc2)n1 [Example 17] | 8.07 |
| COC1(CCn2cc(-c3ncnc4oc(-c5ccccc5)cc34)c(-c3ccc(F)cc3)n2)COC1 [Example 113] | 8.90 |
| CS(=O)(=O)N1CC[C@@H](n2cc(-c3ncnc4oc(-c5ccccc5)cc34)c(-c3ccc(F)cc3)n2)C1 (single isomer, unassigned) [Example 101] | 9.41 |
| OCCCCn1nc(-c2ccc(F)cc2)c(-c2ncnc3[nH]c(-c4ccccc4)nc23)n1 [Example 28] | 7.97 |

1: CC(=O)N1CCC(n2cc(-c3ncnc4oc(-c5ccccc5)cc34)c(-c3ccc(F)cc3)n2)C1 (centres unmarked) [Example 92]
2: O=S1(=O)CCC(Cn2cc(-c3ncnc4oc(-c5ccccc5)cc34)c(-c3ccc(F)cc3)n2)C1 (racemic) [Example 53]
Problem: Given the listed records, identify the one among 1 and 2 with higher pIC50. Use the label to indicate which entry you chose.
Solution: 2
(2: 9.34, 1: 9.02)

This collection of values is drawn from patent US20250034159A1.
